Target: E. coli PNP (Escherichia coli, UniProt P0ABP8)
Sequence (P0ABP8 2-239): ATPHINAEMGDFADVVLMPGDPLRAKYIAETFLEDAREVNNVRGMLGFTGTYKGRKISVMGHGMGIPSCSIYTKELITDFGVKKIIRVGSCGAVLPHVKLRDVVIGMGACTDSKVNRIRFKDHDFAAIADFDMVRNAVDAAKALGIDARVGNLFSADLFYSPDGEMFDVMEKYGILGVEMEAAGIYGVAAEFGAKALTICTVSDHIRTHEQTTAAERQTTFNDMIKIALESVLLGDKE
Assay type: biochemical
Reported Metric: Substrate quality for bacterial (E. coli) PNP

Could you share which Substrate quality for bacterial (E. coli) PNP value was measured for Nc1cc2ncn(C3O[C@H](CO)[C@@H](O)[C@H]3O)c2c(=O)[nH]1 (some centres unmarked) ?
good substrates

Could you share which Substrate quality for bacterial (E. coli) PNP value was measured for Nc1ncnc2c1ncn2[C@@H]1O[C@H](CO)C[C@H]1O ?
poor substrates

Could you share which Substrate quality for bacterial (E. coli) PNP value was measured for Nc1nc(F)nc2c1ncn2[C@@H]1O[C@H](CO)[C@@H](O)[C@H]1F ?
poor substrates

Could you share which Substrate quality for bacterial (E. coli) PNP value was measured for CC1(C)OC2C(C(N)=O)OC(n3cnc4c(N)ncnc43)C2O1 (centres unmarked) ?
poor substrates

New cases:
Could you share which Substrate quality for bacterial (E. coli) PNP value was measured for Nc1cc(Cl)c2ncn([C@@H]3O[C@H](CO)[C@@H](O)[C@H]3O)c2n1 [1-deaza-2-amino-6-Cl-purine-riboside, 2-amino-6-chloro-1-deazapurine riboside] ?
good substrates

====

Target: E. coli PNP (Escherichia coli, UniProt P0ABP8)
Assay type: biochemical
Reported Metric: Substrate quality for bacterial (E. coli) PNP

Examples from the recorded data:
Kindly state the measured Substrate quality for bacterial (E. coli) PNP obtained for Cc1ncnc2c1ncn2[C@H]1C[C@H](O)[C@@H](CO)O1 with E. coli PNP (Escherichia coli, UniProt P0ABP8).
good substrates

Kindly state the measured Substrate quality for bacterial (E. coli) PNP obtained for Nc1ncnc2c1ncn2[C@H]1CC[C@@H](CO)O1 with E. coli PNP (Escherichia coli, UniProt P0ABP8).
poor substrates

Kindly state the measured Substrate quality for bacterial (E. coli) PNP obtained for Nc1nc(F)nc2c1ncn2[C@H]1C[C@H](O)[C@@H](CO)O1 with E. coli PNP (Escherichia coli, UniProt P0ABP8).
good substrates

Kindly state the measured Substrate quality for bacterial (E. coli) PNP obtained for NC(=O)[C@H]1O[C@@H](n2cnc3c(N)ncnc32)[C@H](O)[C@@H]1O [5′-carboxamide of adenosine] with E. coli PNP (Escherichia coli, UniProt P0ABP8).
poor substrates

New cases:
Kindly state the measured Substrate quality for bacterial (E. coli) PNP obtained for C[C@H]1O[C@@H](n2cnc3c(N)nc(F)nc32)[C@H](O)[C@@H]1O with E. coli PNP (Escherichia coli, UniProt P0ABP8).
good substrates
